tested on: COLO 205; experiment: NCI tumour cell line growth inhibition, 48 h
Activity calls are given as the source filed them. Cut-off read from the data, not from the text of the source: active = GI50 up to about 1.1 µM and inactive = higher.
Metric: GI50

Solved cases (4 shown):
Compound | GI50
O=C1C(Cl)=C(Cl)C(=O)N1c1cccc(C(F)(F)F)c1 | > 79.3 µM (inactive)
CCOc1cc2c(=O)oc3c(OC)ccc4ccc(c1OC)c2c43 | > 100 µM (inactive)
CC(=O)c1cccc(C)c1C(=O)O | > 100 µM (inactive)
CC(C)CC(C(N)=O)C(=O)NC(Cc1ccccc1)NC(=O)CNC(=O)C(C)NC(=O)C(N)Cc1ccc(O)cc1 (stereo not given) | > 100 µM (inactive)

--- query ---
Give GI50 (COLO 205) of the following compound: `CC(C)=CCC/C(C)=C/Cc1c2c(c3oc(-c4ccc(O)c(O)c4)c(O)c(=O)c3c1O)C=CC(C)(C)O2`
1.64 µM (inactive)
